Data provenance is PubChem BioAssay (NCI).

Tested on: HS 578T breast
measurement_description: NCI-60 one-dose screen, 48 h
condition_info: 10 µM unless noted
This is part of a sample that, as a whole, favours compounds with a hit. Of some 83,000 tested, about 20% had one in any assay. Active and inactive are the calls of the source. How the source made its calls: active means growth percent below 10; inactive means the rest.
Please state which outcome applies, choosing from 1 (yes) = active, 0 (no) = inactive

Illustrative cases are given below, each with its answer.
> print(dat)
                                   compound      cat
1     Cc1ccc2c(ccc3c[n+]4c5ccccc5ccc4n32)c1   0 (no)
2  CCCCCCCCCCCCCCCC[N+](C)(CCO)Cc1cnc[nH]1 (stereo unspecified)  1 (yes)
3              O=C(Nc1ccc(F)cc1)ON=C1CCCCC1   0 (no)
4  Cc1ccc(C(=Nc2ccccc2)N=P(c2ccccc2)(c2ccccc2)c2ccccc2)cc1  1 (yes)
5            Cc1c2ccccc2c(C)c2c1ccc1ccccc12   0 (no)

With those in mind, consider the next compound.
Dear all, I need the recorded test outcome for "NC(=S)N/N=C/c1ccc(Cl)s1" , thank you.
0 (no)

###

Test system: 786-0 renal
measurement_description: NCI-60 one-dose screen, 48 h
condition_info: 10 µM unless noted
About 83,000 compounds went through this panel and 20% of them were active in at least one assay; those are over-represented in the sample as a whole. Calls of active or inactive are those of the source. How the source made its calls: active means growth percent below 10; inactive means the rest.
Please state which outcome applies, choosing from active, inactive

compound	cat
CCN(CC)CCOc1ccc(-c2nc3cc(Cl)ccc3s2)cc1	inactive
O=C1N[C@H]2[C@H](CS[C@H]2CCCCC(=O)N(CCP(c2ccccc2)c2ccccc2)CCP(c2ccccc2)c2ccccc2)N1	inactive
O=[N+]([O-])c1ccc(N=Nc2ccc(O)cc2O)cc1	inactive
N#CSCc1ccc(CSC#N)c(Cl)c1	inactive
O=Nc1ccccc1N=O	inactive
CCCCCCCCCCCCCCCC[N+](C)(CCO)Cc1cnc[nH]1 (configuration not stated)	active
CC1OC(OC2C(OC3CCC4(C)C(CCC5(C)C4CC=C4C6CC(C)(C)CCC6(CO)C(O)CC45C)C3(C)C)OC(C(=O)O)C(OC3OC(COC4OC(CO)C(O)C(O)C4O)C(O)C(O)C3O)C2O)C(O)C(O)C1O (configuration not stated)	active
Cc1cc2nc(CS)[nH]c2cc1C	inactive
O=[N+]([O-])c1ccc2c(N=Nc3ccc4ccccc4c3O)c(O)cc(S(=O)(=O)O)c2c1	inactive
NC(N)=N/N=C/c1ccc([N+](=O)[O-])o1	inactive

Dear all, I need the recorded test outcome for "COc1cc(/C=C(/C)C[N+](=O)[O-])ccc1O" , thank you.
inactive

Dear all, I need the recorded test outcome for CCC1OC(OC)C=CC1=O (configuration not stated) , thank you.
inactive

Dear all, I need the recorded test outcome for "S=C(NCCNC(=S)[S][Sn]([c]1ccccc1)([c]1ccccc1)[c]1ccccc1)[S][Sn]([c]1ccccc1)([c]1ccccc1)[c]1ccccc1" , thank you.
active

###

System: KM12 colon
measurement_description: NCI-60 one-dose screen, 48 h (100 = growth as untreated, 0 = no growth, -100 = all killed)
condition_info: 10 µM unless noted
About 83,000 compounds went through this panel and 20% of them were active in at least one assay; those are over-represented in the sample as a whole.
Catalogue of molecules with associated growth
Only the number, expressed in %, is required.

Reference set, count: 5
> print(dat)
                                   molecule  result.value
1  CCCCCCC(C)c1ccccc1O (configuration not stated) (tested in a mixture with another compound)           107
2             O=C(/C=C/C=C/c1ccccc1)c1ccco1          86.8
3  Cn1c2c(c3ccccc31)CCN1C[C@@H]3CCCC[C@H]3C[C@@H]21         -32.3
4                  CCCCCCCCCCCCCCNCc1ccccc1          62.5
5        CNC(=O)N/N=C/c1ccc([N+](=O)[O-])o1          92.2

Sample "OC(CNc1ccnc2cc(Cl)ccc12)CNc1ccnc2cc(Cl)ccc12" — what was its growth?
44.5

Sample "CCC(=O)Sc1ccccc1C(=O)Nc1ccc(Cl)cc1" — what was its growth?
64.9

Sample C1=C(c2ccccc2)C(c2ccc(OCCN3CCCCC3)cc2)Oc2ccccc21 (configuration not stated) — what was its growth?
46.4

Sample "Cc1ccc2nc(-[n+]3cc4ccccc4cc3C)ccc2c1" — what was its growth?
31.5

Sample "CC1(C)CC([P+](c2ccccc2)(c2ccccc2)c2ccccc2)=NN1" — what was its growth?
21.7

Sample "Cc1ccc2nc(C[n+]3ccc4ccccc4c3)ccc2c1" — what was its growth?
56.4

Sample CN(C)c1ccc(C(=C2C=CC(=[N+](C)C)C=C2)c2ccc(N(C)C)cc2)cc1 (tested in a mixture with another compound) — what was its growth?
-95.3

Sample "CCC(CC)COC(=O)c1ccc(O)c(O)c1" — what was its growth?
61.3

Sample CCC1OC(OC)C=CC1=O (configuration not stated) — what was its growth?
99.7

Sample "O=C1N[C@H]2[C@H](CS[C@H]2CCCCC(=O)N(CCP(c2ccccc2)c2ccccc2)CCP(c2ccccc2)c2ccccc2)N1" — what was its growth?
59.9

Sample "C=C(Cl)C(=NC(C)(C)C)Nc1ccccc1C" — what was its growth?
80.9

Sample "C=CCOc1ccc(N=NC(C#N)C#N)cc1" — what was its growth?
100

Sample CCC(c1cccc(O)c1)C(CC)c1cccc(O)c1 (configuration not stated) — what was its growth?
36.7

Sample "Cc1ccc2c(ccc3c[n+]4c5ccccc5ccc4n32)c1" — what was its growth?
-8.63

Sample CCCCCCCCCCCCCCCC[N+](C)(CCO)Cc1cnc[nH]1 (configuration not stated) — what was its growth?
-97.7

Sample "Oc1ccc(/C=N/NC(=S)Nc2ccccc2)nc1" — what was its growth?
11.3

Sample "S=C(NCCNC(=S)[S][Sn]([c]1ccccc1)([c]1ccccc1)[c]1ccccc1)[S][Sn]([c]1ccccc1)([c]1ccccc1)[c]1ccccc1" — what was its growth?
-99.4

###

System: HCC-2998 colon
measurement_description: NCI-60 one-dose screen, 48 h
condition_info: 10 µM unless noted
Compounds without any hit were thinned out: in the full panel of roughly 83,000, 20% have a hit. Active and inactive are the calls of the source. Rule for the calls: active = growth percent below 10; inactive = the rest.
Please state which outcome applies, choosing from T for active, F for inactive

> print(dat)
                                   molecule  cat
1  O=C(/C=C\c1ccccc1)N1c2ccccc2CC1c1c[nH]c2ccccc12 (stereo not given)    F
2           Oc1ccc(/C=N/NC(=S)Nc2ccccc2)nc1    T
3              COc1ccccc1/C=C\C(=O)c1ccccc1    F

Dear all, I need the recorded test outcome for "CCOc1ccc(-c2nc3ccc(-c4nc5ccc(N6CCN(C)CC6)cc5[nH]4)cc3[nH]2)cc1" , thank you.
T

Dear all, I need the recorded test outcome for "S=C(NCCNC(=S)[S][Sn]([c]1ccccc1)([c]1ccccc1)[c]1ccccc1)[S][Sn]([c]1ccccc1)([c]1ccccc1)[c]1ccccc1" , thank you.
T

Dear all, I need the recorded test outcome for "CCOC(=O)/C(=C\c1ccc(-c2ccccc2)cc1)C(C)=O" , thank you.
F

Dear all, I need the recorded test outcome for "CCN(CC)CC(C)(C)C(=O)/C=C/c1ccc(Cl)c(Cl)c1" , thank you.
T

Dear all, I need the recorded test outcome for "CCCCCCCCCCCCCCNCc1ccccc1" , thank you.
F

Dear all, I need the recorded test outcome for CC1SC(=S)N(c2ccc(Cl)cc2)C1=O (stereo not given) , thank you.
F

Dear all, I need the recorded test outcome for CN(Cc1cnc2nc(N)nc(N)c2n1)c1ccc(C(=O)NC(CCC(=O)O)C(=O)O)cc1 (stereo not given) , thank you.
F

###

System: MDA-MB-231 breast
measurement_description: NCI-60 one-dose screen, 48 h (100 = growth as untreated, 0 = no growth, -100 = all killed)
condition_info: 10 µM unless noted
About 83,000 compounds went through this panel and 20% of them were active in at least one assay; those are over-represented in the sample as a whole.
Would you mind labelling by growth? At or over 50% is met, under is not met.

> print(dat)
                                   molecule          tested.on      cat
1  CCN(CC)CC(C)(C)C(=O)/C=C/c1ccc(Cl)c(Cl)c1  MDA-MB-231 breast  not met

Dear colleague, could you confirm whether "CN(C)c1ccc(N=Nc2cccc3ccccc23)cc1" has growth at or above 50%?
met

Dear colleague, could you confirm whether "N#CSCc1ccc(Cl)c(CSC#N)c1" has growth at or above 50%?
not met

Dear colleague, could you confirm whether N#CC1C(=O)SC2c3ccccc3C(=O)c3ccccc3C12 (configuration not stated) has growth at or above 50%?
met

Dear colleague, could you confirm whether "C=C(Cl)C(=NC(C)(C)C)Nc1ccccc1C" has growth at or above 50%?
met
